- Study Target: Human recombinant MMP-2 (Homo sapiens)
- Construct: made in house; host or cells: MMP-2-transfected p2AHT2 cells
- Sequence (P08253 110-660): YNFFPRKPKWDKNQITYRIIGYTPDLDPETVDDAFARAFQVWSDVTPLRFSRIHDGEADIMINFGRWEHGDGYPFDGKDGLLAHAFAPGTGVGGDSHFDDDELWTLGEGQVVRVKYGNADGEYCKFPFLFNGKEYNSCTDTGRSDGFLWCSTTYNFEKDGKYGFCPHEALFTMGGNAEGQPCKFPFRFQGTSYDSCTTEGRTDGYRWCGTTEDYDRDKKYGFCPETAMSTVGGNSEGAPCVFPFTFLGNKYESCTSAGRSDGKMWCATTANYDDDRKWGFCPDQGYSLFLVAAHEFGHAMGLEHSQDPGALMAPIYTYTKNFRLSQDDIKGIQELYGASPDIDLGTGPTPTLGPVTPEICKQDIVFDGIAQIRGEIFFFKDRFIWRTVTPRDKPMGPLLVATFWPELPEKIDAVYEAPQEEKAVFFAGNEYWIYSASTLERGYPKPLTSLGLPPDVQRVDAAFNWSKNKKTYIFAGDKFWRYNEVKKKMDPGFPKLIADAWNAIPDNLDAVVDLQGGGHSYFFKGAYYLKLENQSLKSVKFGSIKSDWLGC
- Assay Details: In vitro MMP inhibition analysis (fluorogenic peptide substrate cleavage), Ki
- Assay type: biochemical
- Assay Conditions: Table 2

Molecule	Unit Abbreviation	Ki
COCCOc1ccc(-c2ccc(S(=O)(=O)C3(C(=O)NO)CCN(CCOC)CC3)cc2)cc1F	nM	0.217
CCCCc1cnc(-c2ccc(S(=O)(=O)C3(C(=O)NO)CCN(CCOC)CC3)cc2)cn1	nM	2.98
CCCCNC(=O)c1ccc(-c2ccc(S(=O)(=O)C3(C(=O)NO)CCOCC3)cc2)nc1	nM	1.77
CCNc1cnc(-c2ccc(S(=O)(=O)C3(C(=O)NO)CCOCC3)cc2)cn1	nM	4.16
COCCO[C@H]1CC[C@](C(=O)NO)(S(=O)(=O)c2ccc(-c3cnc(CCC(F)(F)C(F)(F)F)cn3)cc2)CC1	nM	0.32
CC(C)COc1cnc(-c2ccc(S(=O)(=O)C3(C(=O)NO)CCOCC3)cc2)cn1	nM	0.09
CC(C)Cc1ccc(-c2ccc(S(=O)(=O)C3(C(=O)NO)CCOCC3)cc2)nc1	nM	0.278
COC(C)CCOc1ccc(-c2ccc(S(=O)(=O)C3(C(=O)NO)CCOCC3)cc2)cc1C(F)(F)F (stereo not shown)	nM	32.5
CCN1CCC(C(=O)NO)(S(=O)(=O)c2ccc(-c3cnc(CCC(F)(F)F)cn3)cc2)CC1	nM	3.57
O=C(NO)C1(S(=O)(=O)c2ccc(-c3noc(-c4ccc(F)cc4)n3)cc2)CCOCC1	nM	1.13
O=C(NO)C1(S(=O)(=O)c2ccc(-c3cnc(OCCC4CC4)cn3)cc2)CCOCC1	nM	0.07
Cc1ccc(-c2ccc(S(=O)(=O)C3(C(=O)NO)CCOCC3)cc2)nc1	nM	0.106
CCN1CCC(C(=O)NO)(S(=O)(=O)c2ccc(-c3noc(-c4ccc(C(F)(F)F)cc4)n3)cc2)CC1	nM	0.76
CCCCOc1ccc(-c2ccc(S(=O)(=O)C3(C(=O)NO)CCN(CCOC)CC3)cc2)cc1	nM	0.093
CCN1CCC(C(=O)NO)(S(=O)(=O)c2ccc(-c3noc(-c4ccc(F)cc4)n3)cc2)CC1	nM	1.75
C#CCN1CCC(C(=O)NO)(S(=O)(=O)c2ccc(-c3ccc(CCC(F)(F)C(F)(F)F)cn3)cc2)CC1	nM	0.085
CC(=O)Nc1cnc(-c2ccc(S(=O)(=O)C3(C(=O)NO)CCOCC3)cc2)cn1	nM	10.3
O=C(Cc1ccc(-c2ccc(S(=O)(=O)C3(C(=O)NO)CCOCC3)cc2)nc1)N1CCCCC1	nM	34.7
O=C(NO)C1(S(=O)(=O)c2ccc(-c3ccc(-c4ccccc4)cc3)cc2)CCOCC1	nM	0.087
O=C(NO)C1(S(=O)(=O)c2ccc(-c3cnc(-n4cccc4)cn3)cc2)CCOCC1	nM	1.09
COC(=O)c1ccc2cc(-c3ccc(S(=O)(=O)C4(C(=O)NO)CCOCC4)cc3)ccc2c1	nM	0.272
O=C(NO)C1(S(=O)(=O)c2ccc(-c3cnc(NCC4CC4)cn3)cc2)CCOCC1	nM	5.08
O=C(NO)C1(S(=O)(=O)c2ccc(-c3ccc(OCC(F)(F)C(F)(F)F)cc3)cc2)CCOCC1	nM	0.17
CCCCNc1cnc(-c2ccc(S(=O)(=O)C3(C(=O)NO)CCOCC3)cc2)cn1	nM	7.44
CO[C@H]1CC[C@](C(=O)NO)(S(=O)(=O)c2ccc(-c3cnc(CCC(F)(F)C(F)(F)F)cn3)cc2)CC1	nM	0.35
CCCCCc1ccc(-c2ccc(S(=O)(=O)C3(C(=O)NO)CCOCC3)cc2)c(F)c1	nM	0.878
O=C(NO)C1(S(=O)(=O)c2ccc(-c3cnc(OCC4CC4)cn3)cc2)CCOCC1	nM	0.08
CC(C)CNC(=O)c1cnc(-c2ccc(S(=O)(=O)C3(C(=O)NO)CCOCC3)cc2)cn1	nM	2.33
CC(C)(C)NC(=O)c1ccc(-c2ccc(S(=O)(=O)C3(C(=O)NO)CCOCC3)cc2)nc1	nM	15.1
CN(C)C(=O)N1CCC(C(=O)NO)(S(=O)(=O)c2ccc(-c3ccc(CCC(F)(F)C(F)(F)F)cc3)cc2)CC1	nM	0.35
CCC(C)COc1ccc(-c2ccc(S(=O)(=O)C3(C(=O)NO)CCOCC3)cc2)cc1C(F)(F)F (stereo not shown)	nM	58.1

Reference source for all entries: patent US20060074243A1
